tested on: XF498; test: NCI tumour cell line growth inhibition, 48 h
Active and inactive are the calls of the source. Cut-off read from the data, not from the text of the source: active = GI50 up to about 1.1 µM and inactive = higher.
Measured property: GI50

1. CCCCCCCCCCCOC(=S)NC(C)C : 16.7 µM (inactive)
2. CC12CCCC(C#N)(C1)OC2=O (centres undefined) : > 100 µM (inactive)
3. Cc1cc(C)nc(Nc2nc3cc([N+](=O)[O-])ccc3[nH]2)n1 : > 100 µM (inactive)

The recorded GI50 for entry Cc1cccc(NC(=O)C(=O)Cc2nc3ccccc3nc2O)c1C equals > 100 µM (inactive)

---

system: SN12C; assay: NCI tumour cell line growth inhibition, 48 h
Activity calls are given as the source filed them. No stated cut-off is given here; in the data, active = GI50 up to about 1.1 µM and inactive = higher.
Form entry, call: pick from 1.0 for active, 0.0 for inactive

Worked cases, answers included:
1) CC(C)(C)c1ccc(OCCOCCOc2ccc(C(C)(C)C)cc2S(N)(=O)=O)c(S(N)(=O)=O)c1 : 0.0
2) COc1ccc(OC)c(CCc2cc(OC)ccc2OC)c1 : 0.0
3) CC1CN1C(=O)NCCCCCCNC(=O)N1CC1C (stereo not drawn) : 0.0
4) CC1(C)CC(=O)C(=CNC(=O)c2ccncc2)C(=O)C1 : 0.0
5) O=C1OC[C@@H]2[C@@H](O)CCCCCN12 : 0.0
6) SCCSCCCSCCS : 0.0

Exam item: Short answer needed: outcome of this test for O=S1(=O)OCCCOS(=O)(=O)C1Br ?
Marked response: 0.0

Exam item: Short answer needed: outcome of this test for C[C@@H]1CCC([C@@H](C)[C@H]2CC[C@H]3[C@@H]4CC[C@H]5C[C@@H](O)CC[C@]5(C)[C@H]4CC[C@]23C)=NC1 ?
Marked response: 0.0

Exam item: Short answer needed: outcome of this test for CC(=O)NNc1nc(C)c(C(=O)/C=C/c2cccc([N+](=O)[O-])c2)s1 ?
Marked response: 0.0

---

system: CAKI-1; test: NCI tumour cell line growth inhibition, 48 h
The source made the active and inactive calls. No stated cut-off is given here; in the data, active = GI50 up to about 1.1 µM and inactive = higher. Residues, ends and D or L forms follow the SMILES beside them. *: point of attachment. Boc = CC(C)(C)OC(=O)*; Bz = O=C(c1ccccc1)*
Please provide measured GI50 for the entries that follow.

1. COc1ccc(/C(CC2OC(=O)c3ccccc32)=N\NC(=O)C[N+](C)(C)C)cc1 (stereo not drawn) : 40.3 µM (inactive)
2. O=P(O)(Cc1ccccc1)c1ccccc1-c1ccccc1 : > 100 µM (inactive)
3. O=C(O)c1cnc2cc(OCc3ccccc3)ccc2c1O : 20.2 µM (inactive)
4. O=C1/C(=C/c2cccc([N+](=O)[O-])c2)N=C(c2ccccc2)N1c1nc2ccc(Sc3ccccc3)cc2[nH]1 : 65.5 µM (inactive)
5. CC1(c2nc3cc(Cl)c(Cl)cc3[nH]2)CCC(CO)C(C)(C)O1 (stereo not drawn) : 29.3 µM (inactive)

Record GI50 per entry; entries follow.
1. CCOC(=O)C(=[N+]=[N-])C(=O)CSC#N
2. CC(NC(=O)C(Cc1ccc(OC(=O)c2ccccc2)cc1)NC(=O)OC(C)(C)C)C(=O)NC(Cc1ccccc1)C(=O)NCC(N)=O (stereo not drawn) (Boc-Y(Bz)AFG-NH2; configuration not given here)
3. O=C1/C(=C/c2ccccc2)CN(C(=O)OCc2ccccc2)C/C1=C\c1ccccc1
4. O=C(/C=C/c1csc(-c2ccccc2)n1)NCc1ccc(C(=O)NCc2ccccc2)cc1
5. CCC1CN(C(=O)c2ccccc2)C(Cc2c[nH]c3ccccc23)C(=O)C1CC(=O)OC (stereo not drawn)
6. O=C1c2ccccc2-c2nnc(-c3ccc(Cl)cc3)cc21
7. COc1ccc(S(=O)(=O)N/N=C/CN2C(=O)c3ccccc3C2=O)cc1OC
8. Cc1cc(O)cc(O)c1/N=N/c1ccc([N+](=O)[O-])cc1

Marked response:
["32.7 µM (inactive)", "> 100 µM (inactive)", "18.1 µM (inactive)", "25.2 µM (inactive)", "54.7 µM (inactive)", "> 10 µM (inactive)", "> 100 µM (inactive)", "14.2 µM (inactive)"]

Record GI50 per entry; entries follow.
1. CN1CCCC2[C@@H]3CCC4c5nonc5CC[C@]4(C)C3CC[C@@]21C (stereo partly drawn)
2. Cc1nc(C)c(C(=O)NNC(=O)c2ccccc2)cc1C(=O)NNC(=O)c1ccccc1
3. CC12CCCC(C#N)(C1)OC2=O (stereo not drawn)

Marked response:
1. > 100 µM (inactive)
2. > 100 µM (inactive)
3. > 100 µM (inactive)

Record GI50 per entry; entries follow.
1. N#CCc1nc(Cc2ccccc2)n[nH]1
2. CCCCCCCCCCCOC(=S)NC(C)C

Marked response:
1. > 100 µM (inactive)
2. 19 µM (inactive)

Source: ChEMBL document CHEMBL1201862
